target: HLA-DR DRB1*1302 (DR13) (Homo sapiens, UniProt P01903+P01911, A100E/A169T/K41T/L162R/M171V/P40S/Q125H/Q178H/Q39Y/Q99D/R42S/S66N/T262R/V115G/W38E/Y61H); test: biochemical; format: binding; details: DRBI *1302
Sequence (P01903 26-254 limits assumed, other chains not shown): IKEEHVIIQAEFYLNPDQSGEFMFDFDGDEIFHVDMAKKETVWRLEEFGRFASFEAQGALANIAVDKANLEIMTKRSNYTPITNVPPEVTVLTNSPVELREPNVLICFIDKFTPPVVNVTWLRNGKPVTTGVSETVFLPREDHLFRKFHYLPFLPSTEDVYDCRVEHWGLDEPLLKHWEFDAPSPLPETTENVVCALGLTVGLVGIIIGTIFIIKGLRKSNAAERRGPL
No end group written: not given here.
quantity.name: IC50 (nM)
Write down the numeric answer in nM and omit the unit.

Below: 4 sequences and their reported IC50.
[[record]]
seq = "RLFDNASLRAHRLHQ"
units_symbol = "nM"
reading = 84

[[record]]
seq = "SNLELLRICLLLIQS"
units_symbol = "nM"
reading = 773

[[record]]
seq = "VTGERGFFYTPKTRR"
units_symbol = "nM"
reading = 25400

[[record]]
seq = "TSLTFSESIPTPSNR"
units_symbol = "nM"
reading = 16


Now for a further sequence.
Specify reported IC50 for the sequence shown: `VFEFAFKDLFVVYRD`
7670
